Protocol Details: log P by HPLC (OECD Guideline 117), method [a] acidic range
Type: physicochemical
Measurement Context: HPLC, method [a] acidic range
Quantity Kind: logP[a]
Numbers only.

// worked examples, logP[a] included
Cc1cc(F)c(-n2nc(C)n(C3CC3)c2=O)cc1SCC(F)(F)F [Example 42]; 2.76
Cc1ccc(-n2nc(OC(C)C)n(C)c2=O)cc1[S+]([O-])CC(F)(F)F (centres unmarked) [Example 163]; 2.87
Cc1cc(F)c(-n2nc(SCC(F)(F)F)n(C3CC3)c2=O)cc1[S+]([O-])CC(F)(F)F (centres unmarked) [Example 255]; 2.93
Cc1cc(F)c(N2CC(OCC3CC3)=CC2=O)cc1SCC(F)(F)F [Example 331]; 3.64

May I ask what logP[a] has been recorded for CCCSc1nn(-c2cc([S+]([O-])CC(F)(F)F)c(C)cc2F)c(=O)n1C1CC1 (centres unmarked) [Example 266] ?
3.24

====

Protocol Details: log P by HPLC (OECD Guideline 117), method [b] neutral range
Format: physicochemical
Measurement Context: HPLC, method [b] neutral range
logP[b] of 3 or higher: met. Under 3: not met.

Past entries and their recorded results:
COCc1nn(-c2cc(SCC(F)(F)F)c(C)cc2F)c(=O)n1N; not met
CCCOc1nn(-c2ccc(C)c(SCC(F)(F)F)c2)c(=O)n1C1CC1; met
COc1nn(-c2ccc(Br)c(SCC(F)(F)F)c2)c(=O)n1C; met
Cc1cc(Cl)c(-n2nc(OCC(C)(C)C)n(C3CC3)c2=O)cc1[S+]([O-])CC(F)(F)F (stereo not drawn); met
CCc1nn(-c2cc(SCC(F)(F)F)c(C)cc2F)c(=O)n1C1CC1; met
Cc1cc(C)c([S+]([O-])CC(F)(F)F)cc1-n1ncn(Cc2ccccc2)c1=O (stereo not drawn); not met
Cc1cc(F)c(-n2nc(C)n(C3CC3)c2=O)cc1[S+]([O-])CC(F)(F)F (stereo not drawn); not met

Moving on to the next molecule.
Is logP[b] at least 3? Consider CCn1c(SC)nn(-c2cc(SCC(F)(F)F)c(C)cc2F)c1=O
met

====

Answer each item with its documented chromatographic logP.
Protocol Details: log P by HPLC (OECD Guideline 117), method [b] neutral range
Type: physicochemical
Measurement Context: reversed-phase C18 HPLC column; HPLC, neutral range, pH 7.8

CCn1ccn(-c2cc([S+]([O-])CC(F)(F)F)c(C)cc2F)c1=O (stereo not drawn) [Example 487]; 1.81
Cc1cc(F)c(-n2nc(C3CC3)n(N(C)C)c2=O)cc1[S+]([O-])CC(F)(F)F (stereo not drawn) [Example 197]; 2.59
Cc1cc(F)c(-n2nnn(C)c2=O)cc1[S+]([O-])CC(F)(F)F (stereo not drawn) [Example 301]; 1.82
CCSc1nn(-c2cc([S+]([O-])CC(F)(F)F)c(C)cc2F)c(=O)n1C (stereo not drawn) [Example 274]; 2.36
COC1=CC(=O)N(c2cc(SCC(F)(F)F)c(C)cc2F)C1 [Example 310]; 2.81

Hi there! I need chromatographic logP for each item below, if you can.
1. CC[S+]([O-])c1nn(-c2cc(SCC(F)(F)F)c(C)cc2F)c(=O)n1C (stereo not drawn) [Example 243]
2. Cc1cc(F)c(-n2nc(C3CCCC3)n(C3CC3)c2=S)cc1SCC(F)(F)F [Example 497]
3. Cc1cc(F)c(-n2c(C)c(C)sc2=NCC(F)(F)F)cc1SCC(F)(F)F [Example 343]
4. Cc1cc(F)c(N2CC(OC3CCCC3)=CC2=O)cc1[S+]([O-])CC(F)(F)F (stereo not drawn) [Example 336]
5. Cc1cc(F)c(-n2nc(C3CC3)n(N(C)C)c2=O)cc1SCC(F)(F)F [Example 195]

[2.51, 4.57, 4.91, 2.91, 3.73]

Hi there! I need chromatographic logP for each item below, if you can.
1. Cc1cc(F)c(NC(=S)NCC(F)(F)F)cc1[S+]([O-])CC(F)(F)F (stereo not drawn) [IIb-1]
2. Cc1cc(F)c(-n2nc(S(C)(=O)=O)n(C)c2=O)cc1SCC(F)(F)F [Example 420]
3. Cc1cc(F)c(-n2nc(C3CCCC3)n(C3CC3)c2=O)cc1SCC(F)(F)F [Example 358]
4. Cc1nn(-c2cc(SCC(F)(F)F)c(C)cc2F)c(=O)o1 [Example 448]
5. Cc1cc(F)c(-n2nc(S(C)(=O)=O)n(C)c2=O)cc1[S+]([O-])CC(F)(F)F (stereo not drawn) [Example 421]
6. COc1nn(-c2ccc(C(F)(F)F)c(SCC(F)(F)F)c2)c(=O)n1C [Example 95]
7. Cc1cc(F)c(-n2nc(C(F)(F)F)n(C)c2=O)cc1[S+]([O-])CC(F)(F)F (stereo not drawn) [Example 12]

2.3
2.77
4.2
3.09
1.84
3.64
2.46

May I ask what chromatographic logP has been recorded for CC(C)n1c(Br)n[nH]c1=O ?
0.83

====

Protocol Details: log P by HPLC (OECD Guideline 117), method [b] neutral range
Format: physicochemical
Measurement Context: HPLC, method [b] neutral range
Method: The log P values were determined analogously to OECD Guideline 117 (EC Directive 92/69/EEC) by HPLC (high-performance liquid chromatography) using reversed-phase columns (C 18), by the following methods: [b] The LC-MS determination in the neutral range is effected at pH 7.8 with 0.001 molar aqueous ammonium hydrogencarbonate solution and acetonitrile as eluents; linear gradient from 10% acetonitrile to 95% acetonitrile.
Quantity Kind: logP[b]
Answers are plain numbers.

// worked examples, logP[b] included
COn1c(C(C)C)nn(-c2cc(SCC(F)(F)F)c(C)cc2F)c1=O; 3.49
Cc1cc(F)c(-n2nc(SC(C)C)n(C3CC3)c2=O)cc1[S+]([O-])CC(F)(F)F (stereo not shown); 3.12
CC(C)(C)COc1nn(-c2cc(SCC(F)(F)F)c(Cl)cc2F)c(=O)n1C1CC1; 4.89

We next turn to a different molecule, shown below.
May I ask what logP[b] has been recorded for Cc1cc(F)c(-n2nc(-c3ccc(Cl)cc3)oc2=O)cc1SCC(F)(F)F ?
4.78

====

Protocol Details: log P by HPLC (OECD Guideline 117), method [a] acidic range
Format: physicochemical
Measurement Context: HPLC, method [a] acidic range
Quantity Kind: logP[a]

// worked examples, logP[a] included
Cc1cc(F)c(-n2nc(OC(C)C)n(C3CC3)c2=O)cc1SCC(F)(F)F [Example 101]; 3.93
Cc1cc(F)c(-n2nc(C3CC3)n(C3CC3)c2=O)cc1SCC(F)(F)F [Example 65]; 3.39
COn1c(C)nn(-c2cc([S+]([O-])CC(F)(F)F)c(C)cc2F)c1=O (stereo not drawn) [Example 226]; 1.76
Cc1cc(F)c(-n2nc(C(F)(F)F)n(C3CC3)c2=O)cc1SCC(F)(F)F [Example 59]; 3.97
COn1c(C(C)C)nn(-c2cc([S+]([O-])CC(F)(F)F)c(C)cc2F)c1=O (stereo not drawn) [Example 419]; 2.46

Hi there! I need logP[a] for each item below, if you can.
1. C=CCn1c(OC)nn(-c2ccc(C)c(SCC(F)(F)F)c2)c1=O [Example 176]
2. COc1ccc(-n2nc(C(F)(F)F)n(C3CC3)c2=O)cc1SCC(F)(F)F [Example 52]
3. C=CCn1c(OC)nn(-c2cc(SCC(F)(F)F)c(C)cc2F)c1=O [Example 182]
4. COCc1nn(-c2cc(SCC(F)(F)F)c(C)cc2F)c(=O)n1C1CC1 [Example 46]

1: 3.87; 2: 3.84; 3: 3.30; 4: 2.91

====

Protocol Details: log P by HPLC (OECD Guideline 117), method [b] neutral range
Format: physicochemical
Measurement Context: HPLC, method [b] neutral range
logP[b] of 3 or higher: satisfied. Under 3: not satisfied.

Cc1cc(F)c(-n2nc(C)n(-c3ccccc3)c2=O)cc1SCC(F)(F)F; satisfied

Moving on to the next molecule.
Is logP[b] at least 3? Consider CSc1nn(-c2cc(SCC(F)(F)F)c(C)cc2F)c(=O)n1C1CC1
satisfied

====

Answer each item with its documented logP[a].
Protocol Details: log P by HPLC (OECD Guideline 117), method [a] acidic range
Assay type: physicochemical
Measurement Context: HPLC, method [a] acidic range
Give bare numbers.

Cc1cc(Cl)c([S+]([O-])CC(F)(F)F)cc1-n1nc(OCC(F)(F)F)n(C2CC2)c1=O (racemic); 3.06
CCOC1=CC(=O)N(c2cc([S+]([O-])CC(F)(F)F)c(C)cc2F)C1 (centres unmarked); 2.19
CSc1nn(-c2cc([S+]([O-])CC(F)(F)F)c(C)cc2F)c(=O)n1C (centres unmarked); 2.07
CCCc1nn(-c2cc(SCC(F)(F)F)c(C)cc2F)c(=O)n1C1CC1; 3.64
COCCn1c(C(F)(F)F)nn(-c2cc(SCC(F)(F)F)c(C)cc2F)c1=O; 3.80

Hi there! I need logP[a] for each item below, if you can.
1. Cc1cc(C)c(-n2nc(OCC(F)(F)F)n(C3CC3)c2=O)cc1SCC(F)(F)F
2. Cc1cc(F)c(-n2nc(CC(C)C)n(C3CC3)c2=S)cc1SCC(F)(F)F
3. Cc1cc(F)c(-n2nc(SCC(F)F)n(C3CC3)c2=O)cc1SCC(F)(F)F

1. 4.01
2. 4.44
3. 3.71
